target: rCYP2C8 (Homo sapiens); assay: Metabolic stability / reaction phenotyping with recombinant human CYP2C8; conditions: human, recombinant human CYP2C8, 1 µM, pH 7.4
Sequence (P10632 whole entry): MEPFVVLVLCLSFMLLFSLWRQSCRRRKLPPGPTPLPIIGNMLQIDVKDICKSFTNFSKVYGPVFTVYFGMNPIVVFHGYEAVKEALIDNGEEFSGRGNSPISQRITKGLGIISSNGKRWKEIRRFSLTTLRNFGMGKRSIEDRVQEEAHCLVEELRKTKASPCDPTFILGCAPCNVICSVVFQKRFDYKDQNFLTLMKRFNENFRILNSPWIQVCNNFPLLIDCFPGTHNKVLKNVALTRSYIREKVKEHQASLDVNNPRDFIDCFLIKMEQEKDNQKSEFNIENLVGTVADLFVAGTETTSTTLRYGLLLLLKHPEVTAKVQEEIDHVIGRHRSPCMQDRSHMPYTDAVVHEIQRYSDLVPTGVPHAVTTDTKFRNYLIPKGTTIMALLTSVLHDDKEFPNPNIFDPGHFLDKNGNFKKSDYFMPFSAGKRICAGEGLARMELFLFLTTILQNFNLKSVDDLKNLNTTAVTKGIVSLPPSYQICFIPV
# Lookup of reported rCYP Clint, CYP2C8 keyed by entry

[ask] Supply measured rCYP Clint, CYP2C8 of `CNC(=O)O/N=C/C(C)(C)SC` in your reply.
[reply] 0.047 µL/min/pmol

* * *

molecular target: rCYP2D6 (Homo sapiens, UniProt P10635); experiment: Metabolic stability / reaction phenotyping with recombinant human CYP2D6; conditions: human, recombinant human CYP2D6, 1 µM, pH 7.4
Sequence (P10635 whole entry): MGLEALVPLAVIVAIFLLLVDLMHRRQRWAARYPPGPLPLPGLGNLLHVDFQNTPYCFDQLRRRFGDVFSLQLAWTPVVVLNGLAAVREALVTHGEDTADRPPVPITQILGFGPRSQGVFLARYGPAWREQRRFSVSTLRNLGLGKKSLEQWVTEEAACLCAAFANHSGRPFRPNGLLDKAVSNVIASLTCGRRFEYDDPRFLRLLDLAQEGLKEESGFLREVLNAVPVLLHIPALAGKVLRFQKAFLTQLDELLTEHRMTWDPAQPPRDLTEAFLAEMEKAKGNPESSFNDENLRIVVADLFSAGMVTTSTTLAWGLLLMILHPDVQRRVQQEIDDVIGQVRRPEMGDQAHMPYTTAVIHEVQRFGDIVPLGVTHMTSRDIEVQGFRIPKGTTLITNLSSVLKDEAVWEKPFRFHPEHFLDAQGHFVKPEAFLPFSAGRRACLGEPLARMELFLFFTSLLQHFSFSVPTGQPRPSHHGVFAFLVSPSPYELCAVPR
MEASURED PROPERTY: % Contribution of CYP Enzymes (fmCYP) in Metabolism, CYP2D6 (%)
Give the value, in units of %, as a plain number.

// solved cases for % Contribution of CYP Enzymes (fmCYP) in Metabolism, CYP2D6 follow
[[record]]
compound = "CSc1nc2cc(Cl)c(Oc3cccc(Cl)c3Cl)cc2[nH]1 [Triclabendazole, reference compound]"
units_of_measure = "%"
value_observed = 3.88

[[record]]
compound = "O=C1Cc2cc(CCN3CCN(c4nsc5ccccc45)CC3)c(Cl)cc2N1 [Ziprasidone, ziprasidone, reference compound]"
units_of_measure = "%"
value_observed = 0.21

[[record]]
compound = "CC(C)(O)c1ccccc1CC[C@@H](SCC1(CC(=O)O)CC1)c1cccc(/C=C/c2ccc3ccc(Cl)cc3n2)c1 [Montelukast, montelukast, reference compound]"
units_of_measure = "%"
value_observed = 0.64

[[record]]
compound = "CNC(=O)Oc1cc(C)c(SC)c(C)c1 [Methiocarb, methiocarb]"
units_of_measure = "%"
value_observed = 7.46


[ask] Answer with % Contribution of CYP Enzymes (fmCYP) in Metabolism, CYP2D6 of CCCSc1ccc2nc(NC(=O)OC)[nH]c2c1 [Albendazole, albendazole, reference compound] measured for rCYP2D6 (Homo sapiens, UniProt P10635).
[reply] 3.33

* * *

target: rCYP2C9 (Homo sapiens); assay: Metabolic stability / reaction phenotyping with recombinant human CYP2C9; conditions: human, recombinant human CYP2C9, 1 µM, pH 7.4
Sequence (P11712 whole entry): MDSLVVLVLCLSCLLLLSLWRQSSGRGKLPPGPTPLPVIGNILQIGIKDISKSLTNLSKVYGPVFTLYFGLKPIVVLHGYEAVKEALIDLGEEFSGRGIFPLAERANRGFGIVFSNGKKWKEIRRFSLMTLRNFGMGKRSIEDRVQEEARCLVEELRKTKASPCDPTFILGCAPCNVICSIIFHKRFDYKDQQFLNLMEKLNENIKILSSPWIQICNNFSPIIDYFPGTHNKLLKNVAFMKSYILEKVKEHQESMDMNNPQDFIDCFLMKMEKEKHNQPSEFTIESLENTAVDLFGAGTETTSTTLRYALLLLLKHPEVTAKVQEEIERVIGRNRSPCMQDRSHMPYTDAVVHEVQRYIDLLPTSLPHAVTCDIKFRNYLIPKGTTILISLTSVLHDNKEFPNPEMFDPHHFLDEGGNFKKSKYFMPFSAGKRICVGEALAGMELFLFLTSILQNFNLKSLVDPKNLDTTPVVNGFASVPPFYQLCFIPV
Rule: % Contribution of CYP Enzymes (fmCYP) in Metabolism, CYP2C9 below 9% gives condition met, anything at or above gives condition not met.

Previously resolved entries follow.
[[record]]
compound = "CNC(=O)Oc1cc(C)c(SC)c(C)c1 [Methiocarb, methiocarb]"
assigned_category = "condition met"

[[record]]
compound = "CSc1nc2cc(Cl)c(Oc3cccc(Cl)c3Cl)cc2[nH]1 [Triclabendazole, reference compound]"
assigned_category = "condition not met"

[[record]]
compound = "CNC(=O)O/N=C/C(C)(C)SC [Aldicarb, aldicarb]"
assigned_category = "condition not met"


Alright, here's another compound for you.
[ask] A record lists CCCSc1ccc2nc(NC(=O)OC)[nH]c2c1 [Albendazole, albendazole, reference compound] . Is its % Contribution of CYP Enzymes (fmCYP) in Metabolism, CYP2C9 below 9%?
[reply] condition met

* * *

# Lookup of reported % Metabolized at 30 min Incubation with Human Liver Fractions/Enzymes Cytosol keyed by entry
experiment: Metabolic stability, incubation with human liver cytosol; format: in vitro ADME; settings: 1 µM test compound, 1 mg/mL protein
Give the value, in units of %, as a plain number.

// solved cases for % Metabolized at 30 min Incubation with Human Liver Fractions/Enzymes Cytosol follow
[[record]]
compound = "CCCSc1ccc2nc(NC(=O)OC)[nH]c2c1 [Albendazole, albendazole, reference compound]"
value_observed = 0.00

[[record]]
compound = "CNC(=O)O/N=C/C(C)(C)S(C)(=O)=O"
value_observed = 0.00

[[record]]
compound = "CNC(=O)O/N=C/C(C)(C)[S+](C)[O-] (stereo not shown) [Aldicarb sulfoxide, aldicarb sulfoxide]"
value_observed = 0.00


[ask] Supply measured % Metabolized at 30 min Incubation with Human Liver Fractions/Enzymes Cytosol of O=C1Cc2cc(CCN3CCN(c4nsc5ccccc45)CC3)c(Cl)cc2N1 [Ziprasidone, ziprasidone, reference compound] in your reply.
[reply] 10.86

* * *

# Lookup of reported inhibition at 2 µM keyed by entry
biological target: CYP3A4 (Homo sapiens, UniProt P08684); assay: in vitro; conditions: microsomes, pH 7.4, % Inhibition of Control Activity CYP3A4 (substrate, testosterone)
Sequence (P08684 2-503): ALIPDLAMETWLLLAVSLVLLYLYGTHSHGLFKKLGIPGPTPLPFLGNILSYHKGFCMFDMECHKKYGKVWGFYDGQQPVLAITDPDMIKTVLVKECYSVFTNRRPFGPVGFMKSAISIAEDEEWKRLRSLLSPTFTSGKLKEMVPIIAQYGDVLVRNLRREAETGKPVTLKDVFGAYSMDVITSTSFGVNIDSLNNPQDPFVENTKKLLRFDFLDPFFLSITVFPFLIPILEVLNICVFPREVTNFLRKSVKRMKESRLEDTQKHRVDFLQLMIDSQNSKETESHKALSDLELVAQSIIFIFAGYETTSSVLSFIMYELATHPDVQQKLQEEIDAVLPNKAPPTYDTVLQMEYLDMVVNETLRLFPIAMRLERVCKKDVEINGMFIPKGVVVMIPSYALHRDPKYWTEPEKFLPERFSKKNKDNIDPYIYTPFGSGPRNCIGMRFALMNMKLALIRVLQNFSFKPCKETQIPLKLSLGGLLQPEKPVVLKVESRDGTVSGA
Give the value, in units of %, as a plain number.

// solved cases for inhibition at 2 µM follow
[[record]]
compound = "CC(C)(O)c1ccccc1CC[C@@H](SCC1(CC(=O)O)CC1)c1cccc(/C=C/c2ccc3ccc(Cl)cc3n2)c1 [Montelukast, montelukast, reference compound]"
value_observed = 0.79

[[record]]
compound = "O=C1Cc2cc(CCN3CCN(c4nsc5ccccc45)CC3)c(Cl)cc2N1 [Ziprasidone, ziprasidone, reference compound]"
value_observed = 8.3

[[record]]
compound = "CCC[S+]([O-])c1ccc2[nH]c(NC(=O)OC)nc2c1 (centres unmarked) [Albendazole sulfoxide, albendazole sulfoxide]"
value_observed = 2.48

[[record]]
compound = "CNC(=O)Oc1cc(C)c(SC)c(C)c1"
value_observed = 8.34


[ask] Supply measured inhibition at 2 µM of CSc1nc2cc(Cl)c(Oc3cccc(Cl)c3Cl)cc2[nH]1 [Triclabendazole, reference compound] in your reply.
[reply] 13.5

[ask] Supply measured inhibition at 2 µM of `CNC(=O)O/N=C/C(C)(C)S(C)(=O)=O` in your reply.
[reply] 1.83

* * *

target: rCYP1A2 (Homo sapiens, UniProt P05177); test: Metabolic stability / reaction phenotyping with recombinant human CYP1A2; conditions: human, recombinant human CYP1A2, 1 µM, pH 7.4
MEASURED PROPERTY: % Contribution of CYP Enzymes (fmCYP) in Metabolism, CYP1A2
Number first, unit second: that is the form wanted.

[[record]]
compound = "CC(C)(O)c1ccccc1CC[C@@H](SCC1(CC(=O)O)CC1)c1cccc(/C=C/c2ccc3ccc(Cl)cc3n2)c1 [Montelukast, montelukast, reference compound]"
value_observed = "4.21%"


[ask] Supply measured % Contribution of CYP Enzymes (fmCYP) in Metabolism, CYP1A2 of CSc1nc2cc(Cl)c(Oc3cccc(Cl)c3Cl)cc2[nH]1 [Triclabendazole, reference compound] in your reply.
[reply] 53.74%

[ask] Supply measured % Contribution of CYP Enzymes (fmCYP) in Metabolism, CYP1A2 of CCCSc1ccc2nc(NC(=O)OC)[nH]c2c1 [Albendazole, albendazole, reference compound] in your reply.
[reply] 74.79%

[ask] Supply measured % Contribution of CYP Enzymes (fmCYP) in Metabolism, CYP1A2 of CNC(=O)Oc1cc(C)c(SC)c(C)c1 [Methiocarb, methiocarb] in your reply.
[reply] 4.75%

[ask] Supply measured % Contribution of CYP Enzymes (fmCYP) in Metabolism, CYP1A2 of O=C1Cc2cc(CCN3CCN(c4nsc5ccccc45)CC3)c(Cl)cc2N1 [Ziprasidone, ziprasidone, reference compound] in your reply.
[reply] 1.73%

* * *

molecular target: CYP2C8 (Homo sapiens); assay: CYP inhibition in human liver microsomes, CYP2C8; details: human, human liver microsomes, pH 7.4, probe paclitaxel
Sequence (P10632 whole entry): as the sequence (P10632 whole entry) above
MEASURED PROPERTY: inhibition at 25 µM (%)
Give the value, in units of %, as a plain number.

[ask] Supply measured inhibition at 25 µM of CN(CCOc1ccc(CC2SC(=O)NC2=O)cc1)c1ccccn1 (stereo not shown) [Rosiglitazone, reference compound] in your reply.
[reply] 69.2

* * *

molecular target: rCYP1A2 (Homo sapiens); assay: Metabolic stability / reaction phenotyping with recombinant human CYP1A2; conditions: human, recombinant human CYP1A2, 1 µM, pH 7.4
MEASURED PROPERTY: Predicted Microsomal Clint, CYP1A2 (µL/min/mg Protein)
Give the value, in units of µL/min/mg Protein, as a plain number.

[[record]]
compound = "CSc1nc2cc(Cl)c(Oc3cccc(Cl)c3Cl)cc2[nH]1 [Triclabendazole, reference compound]"
value_observed = 61.600

[[record]]
compound = "CCCSc1ccc2nc(NC(=O)OC)[nH]c2c1 [Albendazole, albendazole, reference compound]"
value_observed = 78.510


[ask] Supply measured Predicted Microsomal Clint, CYP1A2 of `CNC(=O)Oc1cc(C)c(SC)c(C)c1` in your reply.
[reply] 10.987

[ask] Supply measured Predicted Microsomal Clint, CYP1A2 of O=C1Cc2cc(CCN3CCN(c4nsc5ccccc45)CC3)c(Cl)cc2N1 [Ziprasidone, ziprasidone, reference compound] in your reply.
[reply] 1.069

[ask] Supply measured Predicted Microsomal Clint, CYP1A2 of CC(C)(O)c1ccccc1CC[C@@H](SCC1(CC(=O)O)CC1)c1cccc(/C=C/c2ccc3ccc(Cl)cc3n2)c1 [Montelukast, montelukast, reference compound] in your reply.
[reply] 1.705

* * *

biological target: CYP1A2 (Homo sapiens, UniProt P05177); assay: CYP inhibition in human liver microsomes, CYP1A2; conditions: human, human liver microsomes, pH 7.4, probe phenacetin, Percent inhibition, positive control inhibitor, CYP1A2, concentration tested 20 nM
Sequence (P05177 whole entry): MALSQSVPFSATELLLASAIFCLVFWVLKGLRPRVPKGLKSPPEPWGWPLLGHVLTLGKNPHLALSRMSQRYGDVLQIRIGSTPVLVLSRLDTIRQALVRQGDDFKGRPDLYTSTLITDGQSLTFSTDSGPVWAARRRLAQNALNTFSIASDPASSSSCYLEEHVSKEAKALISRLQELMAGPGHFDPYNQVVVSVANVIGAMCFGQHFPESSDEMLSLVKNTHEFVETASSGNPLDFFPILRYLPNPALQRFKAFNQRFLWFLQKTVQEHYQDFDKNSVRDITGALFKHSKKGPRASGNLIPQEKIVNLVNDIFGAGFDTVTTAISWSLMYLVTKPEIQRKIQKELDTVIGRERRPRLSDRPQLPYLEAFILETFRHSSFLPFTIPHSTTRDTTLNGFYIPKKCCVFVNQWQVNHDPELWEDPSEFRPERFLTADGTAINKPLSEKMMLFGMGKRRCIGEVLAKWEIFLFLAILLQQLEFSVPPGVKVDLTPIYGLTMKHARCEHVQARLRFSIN
MEASURED PROPERTY: inhibition at 20 nM (%)
Give the value, in units of %, as a plain number.

[ask] Supply measured inhibition at 20 nM of O=c1cc(-c2ccccc2)oc2c1ccc1ccccc12 [α-Nepthoflavone, α-naphthoflavone, reference compound] in your reply.
[reply] 62.4
